Data provenance is patent US10463660B2.

test: Oral PK profiles of conjugated oxymorphone in rats (released oxymorphone in plasma by LC-MS/MS); format: in vivo, Sprague-Dawley rats; conditions: conjugate equivalent to 2 mg/kg freebase oxymorphone, released oxymorphone in plasma
Entries and their AUC values follow.
READOUT_KIND: AUC (ng·h/mL)

{"columns": ["COMPOUND", "MEASURE_UNIT", "OBSERVED_VALUE"],
 "data": [
  ["CN1CC[C@]23c4c5ccc(OC(=O)/C=C/c6ccccc6)c4O[C@H]2C(=O)CC[C@@]3(O)[C@H]1C5 [3-Cinnamate-OM]", "ng·h/mL", 36.8],
  ["CN1CC[C@]23c4c5ccc(OC(=O)c6ccccc6O)c4O[C@H]2C(=O)CC[C@@]3(O)[C@H]1C5", "ng·h/mL", 31.3],
  ["CN1CC[C@]23c4c5ccc(O)c4O[C@H]2C(OC(=O)c2cccc(N)c2)=CC[C@@]3(O)[C@H]1C5", "ng·h/mL", 16.7]
]}
